A collection of compounds and their measured K = nbre de meq/L pour 100 g d'animal
Tested on: rats mâles
Assay: Diuretic action with water overload in the rat (modified Lipschitz technique, oral)
Assay type: in vivo
Settings: rat, oral, surcharge hydrique, dose 25 mg/kg, 6 h urine

Solved entries (count: 2):
1) NS(=O)(=O)c1cc2c(cc1Cl)NCNS2(=O)=O [Hydrochloro-thiazide, reference compound] ... +44 meq/L pour 100 g d'animal
2) NS(=O)(=O)c1cc2c(=O)n(N3CCCCC3)c(=O)[nH]c2cc1Cl [Composé C] ... +42 meq/L pour 100 g d'animal

// sample CN(C)n1c(=O)[nH]c2cc(Cl)c(S(N)(=O)=O)cc2c1=O [Composé A] , its K = nbre de meq/L pour 100 g d'animal was +67 meq/L pour 100 g d'animal

K = nbre de meq/L pour 100 g d'animal reading for CCN(CC)n1c(=O)[nH]c2cc(Cl)c(S(N)(=O)=O)cc2c1=O [Composé B] : +33 meq/L pour 100 g d'animal

----------
K = nbre de meq/L pour 100 g d'animal values for the compounds below.
Test system: rats mâles
Assay: Diuretic action with water overload in the rat (modified Lipschitz technique, oral)
Format: in vivo
Details: rat, oral, surcharge hydrique, dose 10 mg/kg, 6 h urine

1. CCN(CC)n1c(=O)[nH]c2cc(Cl)c(S(N)(=O)=O)cc2c1=O [Composé B] ... +35 meq/L pour 100 g d'animal
2. CN(C)n1c(=O)[nH]c2cc(Cl)c(S(N)(=O)=O)cc2c1=O [Composé A] ... +71 meq/L pour 100 g d'animal
3. NS(=O)(=O)c1cc2c(=O)n(N3CCCCC3)c(=O)[nH]c2cc1Cl [Composé C] ... +47 meq/L pour 100 g d'animal
4. NS(=O)(=O)c1cc2c(cc1Cl)NCNS2(=O)=O [Hydrochloro-thiazide, reference compound] ... +22 meq/L pour 100 g d'animal

Let us move to another entry and its K = nbre de meq/L pour 100 g d'animal.
// returns K = nbre de meq/L pour 100 g d'animal for NS(=O)(=O)c1cc(C(=O)O)c(NCc2ccco2)cc1Cl [Furosémide, reference compound] with rats mâles; value = -19 meq/L pour 100 g d'animal
